- study_target: UniProtKB P04035
- Sequence (P04035 whole entry, the tested form may be a part): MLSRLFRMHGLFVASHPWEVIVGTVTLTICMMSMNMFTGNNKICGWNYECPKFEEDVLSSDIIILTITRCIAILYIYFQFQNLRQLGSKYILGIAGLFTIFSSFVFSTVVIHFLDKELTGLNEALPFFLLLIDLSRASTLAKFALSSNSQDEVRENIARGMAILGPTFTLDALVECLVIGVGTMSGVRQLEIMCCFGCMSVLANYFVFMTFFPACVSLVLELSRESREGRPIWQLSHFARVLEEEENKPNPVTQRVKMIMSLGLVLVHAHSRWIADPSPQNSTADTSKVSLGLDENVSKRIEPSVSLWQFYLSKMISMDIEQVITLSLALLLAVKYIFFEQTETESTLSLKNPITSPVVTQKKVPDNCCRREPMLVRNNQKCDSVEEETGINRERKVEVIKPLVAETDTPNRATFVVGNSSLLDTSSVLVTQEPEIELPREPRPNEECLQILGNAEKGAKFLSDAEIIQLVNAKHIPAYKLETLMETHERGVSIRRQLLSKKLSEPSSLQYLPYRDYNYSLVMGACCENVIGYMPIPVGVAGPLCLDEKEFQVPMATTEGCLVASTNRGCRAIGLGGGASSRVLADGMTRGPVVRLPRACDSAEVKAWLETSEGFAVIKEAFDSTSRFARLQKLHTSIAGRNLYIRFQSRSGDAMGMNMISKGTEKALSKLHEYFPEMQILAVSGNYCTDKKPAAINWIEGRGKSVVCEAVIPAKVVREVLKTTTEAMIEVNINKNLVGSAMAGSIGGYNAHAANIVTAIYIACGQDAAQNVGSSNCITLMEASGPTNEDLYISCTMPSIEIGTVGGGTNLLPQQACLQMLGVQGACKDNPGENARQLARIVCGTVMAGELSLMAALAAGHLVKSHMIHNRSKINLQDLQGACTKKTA
- assay_text: Inhibition of human HMG-CoA reductase catalytic domain at 10 uM using HMG-CoA as substrate in presence of NADPH by colorimetric method relative to control
Short version: inhibition at least 20% is criterion met, less is criterion not met.

Worked set:
[[record]]
compound = "COc1ccc(-c2cc3cc(C(c4c[nH]c5ccc([N+](=O)[O-])cc45)c4c[nH]c5ccc([N+](=O)[O-])cc45)cc(C(C)(C)C)c3oc2=O)cc1OC"
study_target = "UniProtKB P04035"
answer_label = "criterion not met"

[[record]]
compound = "COc1ccc(-c2cc3cc(C(c4c[nH]c5ccccc45)c4c[nH]c5ccccc45)cc(C(C)(C)C)c3oc2=O)cc1OC"
study_target = "UniProtKB P04035"
answer_label = "criterion met"

[[record]]
compound = "COc1ccc(-c2cc3cc(C(c4c[nH]c5ccccc45)c4c[nH]c5ccccc45)cc(C(C)C)c3oc2=O)cc1OC"
study_target = "UniProtKB P04035"
answer_label = "criterion not met"


Task: Dear colleague, could you confirm whether COc1ccc(-c2cc3cc(C(c4c(C)[nH]c5ccccc45)c4c(C)[nH]c5ccccc45)cc(C(C)(C)C)c3oc2=O)cc1 has inhibition at or above 20%?
Output: criterion not met

Task: Dear colleague, could you confirm whether COc1ccc(-c2cc3cc(C(c4c[nH]c5ccccc45)c4c[nH]c5ccccc45)cc(C)c3oc2=O)cc1 has inhibition at or above 20%?
Output: criterion not met

Task: Dear colleague, could you confirm whether COc1cc(-c2cc3cc(C(c4c(C)[nH]c5ccccc45)c4c(C)[nH]c5ccccc45)cc(C(C)C)c3oc2=O)cc(OC)c1OC has inhibition at or above 20%?
Output: criterion not met

Task: Dear colleague, could you confirm whether CCC(C)c1cc(C(c2c[nH]c3ccc([N+](=O)[O-])cc23)c2c[nH]c3ccc([N+](=O)[O-])cc23)cc2cc(-c3ccc(OC)c(OC)c3)c(=O)oc12 (stereo not drawn) has inhibition at or above 20%?
Output: criterion not met

Task: Dear colleague, could you confirm whether COc1ccc(-c2cc3cc(C(c4c[nH]c5ccc([N+](=O)[O-])cc45)c4c[nH]c5ccc([N+](=O)[O-])cc45)cc(C(C)(C)C)c3oc2=O)cc1 has inhibition at or above 20%?
Output: criterion not met
